Values from patent US20260078119A1

biological target: FAK (Homo sapiens); construct: homozygous knock-in of a HiBiT tag (Promega Corporation, Madison, WI) to the C-terminus of the FAK gene in its natural genomic locus; endogenous in cells; host or cells: JHH-4-FAK-HiBiT clone d01 (CRISPR-Cas9 knock-in at the endogenous locus); assay: FAK-HiBiT Degradation Assay; type: cell-based; conditions: lower limit of the four parameter fit (value A); Ymax derived using DMSO control; JHH-4-FAK-HiBiT cells, two hours
Sequence (Q05397 whole entry): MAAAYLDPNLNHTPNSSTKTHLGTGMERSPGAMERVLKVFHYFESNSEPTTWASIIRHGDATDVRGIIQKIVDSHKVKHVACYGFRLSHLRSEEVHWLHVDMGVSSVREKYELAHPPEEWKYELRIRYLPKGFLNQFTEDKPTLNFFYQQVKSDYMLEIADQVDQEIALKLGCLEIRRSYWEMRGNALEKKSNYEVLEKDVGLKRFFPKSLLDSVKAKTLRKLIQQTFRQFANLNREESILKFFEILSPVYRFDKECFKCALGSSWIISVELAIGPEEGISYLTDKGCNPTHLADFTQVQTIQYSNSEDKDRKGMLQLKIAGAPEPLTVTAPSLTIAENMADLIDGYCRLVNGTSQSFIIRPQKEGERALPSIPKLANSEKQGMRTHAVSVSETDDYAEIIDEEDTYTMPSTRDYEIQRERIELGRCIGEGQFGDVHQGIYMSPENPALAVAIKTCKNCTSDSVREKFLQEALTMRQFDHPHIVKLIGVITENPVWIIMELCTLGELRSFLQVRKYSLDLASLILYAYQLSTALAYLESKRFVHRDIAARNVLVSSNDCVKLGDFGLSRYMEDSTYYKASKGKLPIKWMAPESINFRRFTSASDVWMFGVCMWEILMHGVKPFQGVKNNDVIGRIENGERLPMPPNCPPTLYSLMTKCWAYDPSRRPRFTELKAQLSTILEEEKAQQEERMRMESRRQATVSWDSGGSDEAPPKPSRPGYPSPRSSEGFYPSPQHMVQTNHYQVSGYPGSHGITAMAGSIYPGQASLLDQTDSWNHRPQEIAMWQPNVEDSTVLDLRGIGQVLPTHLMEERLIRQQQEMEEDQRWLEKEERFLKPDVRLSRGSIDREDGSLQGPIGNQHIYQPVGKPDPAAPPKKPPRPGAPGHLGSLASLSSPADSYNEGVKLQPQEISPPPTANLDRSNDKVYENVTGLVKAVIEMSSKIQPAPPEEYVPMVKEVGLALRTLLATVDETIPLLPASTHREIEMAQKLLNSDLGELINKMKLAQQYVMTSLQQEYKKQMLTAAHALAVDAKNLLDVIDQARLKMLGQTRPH
Just so you know, the groups by FAK HiBiT Ymin go like this: lower range: < 10; middle range: ≥ 10 and < 20; upper range: ≥ 20

For CN(c1cc(-c2ncc(C(F)(F)F)cc2Cl)c2cnn(Cc3ccc4c(c3)CN([C@H]3CCC(=O)NC3=O)C4=O)c2n1)[C@H]1C[C@@H](O)C1 , which FAK HiBiT Ymin bin applies?
middle range

Bin this entry: CCOc1cnc(-c2cc(N3CC(F)C3)nc3c2cnn3Cc2ccc3c(c2)CN([C@H]2CCC(=O)NC2=O)C3=O)c(C(F)(F)F)c1
lower range

Lab note: sort C[C@]1(O)CCN(c2cc(-c3ncc(C(F)(F)F)cc3Cl)c3cnn(Cc4ccc5c(c4)CN([C@H]4CCC(=O)NC4=O)C5=O)c3n2)C1 into the matching FAK HiBiT Ymin band.
middle range

Into which bin does this compound go? O=C1CCC(N2Cc3cc(Cn4ncc5c(-c6ncccc6Cl)cc(N6CCC6)nc54)ccc3C2=O)C(=O)N1 (stereo not shown)
middle range

Where would Cc1nc2c(-c3ncc(F)cc3Cl)cc(N3CC(F)C3)nc2n1Cc1ccc2c(c1)CN(C1CCC(=O)NC1=O)C2=O (stereo not shown) land among the classes by reported FAK HiBiT Ymin?
lower range

Which of the defined bands does the recorded FAK HiBiT Ymin of O=C1CCC(N2Cc3cc(Cn4ncc5c(-c6ncc(C(F)(F)F)cc6Cl)cc(NC6CC6)nc54)ccc3C2=O)C(=O)N1 (stereo not shown) sit within?
upper range

Which class is correct for the following compound? CCOc1ccc(-c2cc(N3CC[C@](C)(O)C3)nc3c2cnn3Cc2ccc3c(c2)CN(C2CCC(=O)NC2=O)C3=O)c(Cl)c1 (stereo partly shown)
middle range

Which class holds O=C1CC[C@H](N2Cc3cc(Cn4ncc5c(-c6ncc(C(F)(F)F)cc6Cl)cc(N6CC(O)C6)nc54)ccc3C2=O)C(=O)N1 ?
upper range

Band for CN(c1cc(-c2ncc(F)cc2Cl)c2cnn(Cc3ccc4c(c3)CN(C3CCC(=O)NC3=O)C4=O)c2n1)C(F)(F)F (stereo not shown) ?
lower range

Consider O=C1CC[C@H](N2Cc3cc(Cn4ncc5c(-c6ncc(C7COC7)cc6Cl)cc(N6CC(F)C6)nc54)ccc3C2=O)C(=O)N1 (single isomer, unassigned) . To which FAK HiBiT Ymin class does it belong?
middle range

Which bin, given its FAK HiBiT Ymin, does CCOc1ccc(-c2cc(N3CC(F)C3)nc3c2cnn3Cc2ccc3c(c2)CN([C@H]2CCC(=O)NC2=O)C3=O)c(C)c1 occupy?
lower range

Note: place this compound into its band. Item: O=C1CCC(N2Cc3cc(Cn4ncc5c(-c6ncc(Cl)cc6F)cc(N6CC(F)C6)nc54)ccc3C2=O)C(=O)N1 (stereo not shown)
middle range

Hi there! Could you help me figure out the category for Cc1ncccc1-c1cc(N2CC(F)C2)nc2c1cnn2Cc1ccc2c(c1)CN(C1CCC(=O)NC1=O)C2=O (stereo not shown) please?
upper range
